parameter: melting point

Problem: Consider the compound N#CC(C#N)=C1N(CCCN2CCCC2)CCN1CCN1CCCC1 [Compound 60] . State its measured melting point.
Result: 70 to 71 °C

Problem: State its melting point for this compound: N#CC(C#N)=C(NCCCN1CCOCC1)N1CCC(N2CCCCC2)CC1 [Compound 165]
Result: 77 to 80 °C

Problem: Answer with the recorded melting point of N#CC(C#N)=C(NCCN1CCCCC1)N1CCC(CN2CCCCC2)CC1 [Compound 147] only.
Result: 78 to 80 °C

Problem: Indicate its recorded melting point; the compound in question is CN(CCN1CCCCC1)C(=C(C#N)C#N)N1CCC(N(C)c2ccccc2)CC1 [Compound 146]
Result: 156 to 158 °C

Problem: Complete the entry with melting point for C[C@@H]1CCCN1CCN1CCN(CCCN2CCC[C@@H]2C)C1=C(C#N)C#N [Compound 196]
Result: 94 to 95 °C

Problem: Give the measured melting point for CN1CCCC1CCN1CCN(CCC2CCCN2C)C1=C(C#N)C#N (stereo not drawn) [Compound 4]
Result: 121 to 123 °C

Problem: Tell us which melting point value is on record for CN(CCCN1CCCCC1)C(=C(C#N)C#N)N1CCC(N2CCCC2)CC1 [Compound 159]
Result: 116 to 117 °C

Problem: Tell me its melting point given C[C@@H]1CCCN1CCN1CCN(CCCN2CCCCC2)C1=C(C#N)C#N [Compound 193] as the entry.
Result: 89 to 90 °C

Problem: Look up and state reported melting point for CN(CCN1CCCCC1)C(=C(C#N)C#N)N1CCC(N2CCCCC2)CC1 [Compound 144]
Result: 109 to 111 °C

----------
Would you kindly list melting point for each of these molecules?

Problem: Please look at this molecule and report its melting point: "C[C@@H]1CCCN1CCN1CCN(CCN2CCC[C@H]2C)C1=C(C#N)C#N"
Result: 139 to 141 °C

Problem: Return the recorded melting point value; entry: "C[C@@H]1CCCN1CCCN1CCN(CCN2CCC[C@H]2C)C1=C(C#N)C#N"
Result: 74 to 75 °C

Problem: Fill in reported melting point for this entry: "N#CC(C#N)=C1N(CCCN2CCCCC2)CCN1CCN1CCCC1"
Result: 63 to 64 °C

Problem: Fill in melting point for record CC1CCCN1CCCN1CCN(CCN2CCCC2C)C1=C(C#N)C#N (stereo not drawn)
Result: 69 to 71 °C

Problem: Dear colleague, please send me the reported melting point for CC1CCCN1CCCN1C(=C(C#N)C#N)N(CCN2CCCCC2)c2ccccc21 (stereo not drawn) when you can.
Result: 85 to 86 °C

Problem: Give reported melting point value for "N#CC(C#N)=C(NC1CCN(Cc2ccccc2)CC1)NC1CCN(Cc2ccccc2)CC1"
Result: 147 to 148 °C

Problem: Give recorded melting point. CC1CCCCN1CCN1CCN(CCCN2CCC[C@@H]2C)C1=C(C#N)C#N (stereo partly drawn)
Result: 88 to 89 °C

Problem: Please give measured melting point of the following entry: CC1CCCN1CCCN1CCN(CCCN2CCC(F)(F)C2)C1=C(C#N)C#N (stereo not drawn)
Result: 99 to 102 °C

Problem: Retrieve melting point measured for "N#CC(C#N)=C1N(CCCN2CCC[C@@H]2CO)CCN1CCCN1CCC[C@@H]1CO" and print it.
Result: 79 to 80 °C

Problem: Identify melting point associated with the molecule "C[C@H]1CCCN1CCN1CCN(CCCN2CCCCC2)C1=C(C#N)C#N"
Result: 95 to 96 °C

Problem: Identify the reported melting point for the following entry. "N#CC(C#N)=C1N(CCCN2CCOCC2)CCN1C1CCN(C2CC2)CC1"
Result: 104 to 106 °C

Problem: Specify melting point for "N#CC(C#N)=C(NCCCN1CCCCC1)N1CCN(C2CCCCC2)CC1" and stop.
Result: 136 to 137 °C

Problem: Output measured melting point for this item: "N#CC(C#N)=C(NCCN1CCCCC1)N1CCC(N2CCCCC2)CC1"
Result: 198 to 200 °C

Problem: Note melting point for the molecule shown: "C#CC(C)(C)N1CCC(N2CCN(CCCN3CCCCC3)C2=C(C#N)C#N)CC1"
Result: 112 to 115 °C

Problem: Tell me melting point reported for CC(C)N1CCC(N(C)C(=C(C#N)C#N)N2CCC(CN3CCCC3C)CC2)CC1 (stereo not drawn)
Result: 138 to 140 °C

Problem: For the molecule CC1CCCN1C1CCN(C(NCCCN2CCCCC2)=C(C#N)C#N)CC1 (stereo not drawn) , give its reported melting point.
Result: 83 to 84 °C

Problem: Output melting point of "C[C@H]1CCCN1CCCN1CCN(CCCN2CCOCC2)C1=C(C#N)C#N"
Result: 72 to 73 °C

Problem: Query melting point for "C[C@@H]1CCCN1CCCN1C(=C(C#N)C#N)N(CCCN2CCC[C@H]2C)c2ccccc21"
Result: 96 to 97 °C
